experiment: protein stability index of a GFP-peptide fusion (GPS, HEK-293T) (PSI 1-6); higher = more stable; settings: treatment: DMSO; c terminus: a fixed tail appended;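 further: 24-mer peptide tiles fused after GFP, lentivirally expressed, FACS-sorted into six equal bins by GFP/DsRed ratio, decoded by Illumina sequencing, PSI is the read-weighted mean bin number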
The entries below are paired with their reported protein stability index.
Lab note: write the figure by itself, no unit.

Check out these entries, answers already filled in.
- Chain: "TAEDAELSDFEECEETGELFEEPA [FCHSD1]"
  protein stability index: 5.58
- Chain: "LCNLGKERFLELAPDFVGDILWEH [ETS2]"
  protein stability index: 2.46

Input line: Entry PQAFPMSRLWDSRLRHYLGSRYDA [DNAAF3] : reported protein stability index = ?
Output line: 2.2

Input line: Entry IQLRRWQETRGELQCRSPPRLHGA [TBC1D10A] : reported protein stability index = ?
Output line: 2.74
